Data credit: patent US20070173488A1

Measured GI50 of individual entries
target_or_system: T315I Ba/F3 (Homo sapiens, UniProt P00519, T315I, cells depend on it, form not given)
Construct: The candidate is BCR (P11274) N-terminal part, as in Bcr-Abl p210 or p185
protocol: 96-well XTT cell survival assay (Ba/F3 cells)
Format: cell-based
experimental_parameters: 72 hours, read-out: T315I Ba/F3 XTT IC50
experimental_endpoint: GI50

O=C(Nc1nc2[nH]nc(-n3cncc3-c3c(Cl)ccc(Cl)c3Cl)c2s1)C1CC1    0.1 to 1 µM
O=C(Nc1nc2[nH]nc(-n3cncc3-c3ccccc3Cl)c2s1)C1CC1    0.1 to 1 µM
O=C(Nc1nc2[nH]nc(-n3cncc3-c3ccccc3)c2s1)C1CC1    0.1 to 1 µM
O=C(Nc1nc2[nH]nc(-n3cncc3-c3cccc(F)c3F)c2s1)C1CC1    0.1 to 1 µM
O=C(Nc1nc2[nH]nc(-n3cncc3-c3ccccn3)c2s1)C1CC1    1 to 10 µM
O=C(Nc1nc2[nH]nc(-n3cncc3-c3c(Cl)cccc3Cl)c2s1)C1CC1    0.1 to 1 µM

###

target_or_system: Met (Homo sapiens)
Sequence (P08581 25-1390): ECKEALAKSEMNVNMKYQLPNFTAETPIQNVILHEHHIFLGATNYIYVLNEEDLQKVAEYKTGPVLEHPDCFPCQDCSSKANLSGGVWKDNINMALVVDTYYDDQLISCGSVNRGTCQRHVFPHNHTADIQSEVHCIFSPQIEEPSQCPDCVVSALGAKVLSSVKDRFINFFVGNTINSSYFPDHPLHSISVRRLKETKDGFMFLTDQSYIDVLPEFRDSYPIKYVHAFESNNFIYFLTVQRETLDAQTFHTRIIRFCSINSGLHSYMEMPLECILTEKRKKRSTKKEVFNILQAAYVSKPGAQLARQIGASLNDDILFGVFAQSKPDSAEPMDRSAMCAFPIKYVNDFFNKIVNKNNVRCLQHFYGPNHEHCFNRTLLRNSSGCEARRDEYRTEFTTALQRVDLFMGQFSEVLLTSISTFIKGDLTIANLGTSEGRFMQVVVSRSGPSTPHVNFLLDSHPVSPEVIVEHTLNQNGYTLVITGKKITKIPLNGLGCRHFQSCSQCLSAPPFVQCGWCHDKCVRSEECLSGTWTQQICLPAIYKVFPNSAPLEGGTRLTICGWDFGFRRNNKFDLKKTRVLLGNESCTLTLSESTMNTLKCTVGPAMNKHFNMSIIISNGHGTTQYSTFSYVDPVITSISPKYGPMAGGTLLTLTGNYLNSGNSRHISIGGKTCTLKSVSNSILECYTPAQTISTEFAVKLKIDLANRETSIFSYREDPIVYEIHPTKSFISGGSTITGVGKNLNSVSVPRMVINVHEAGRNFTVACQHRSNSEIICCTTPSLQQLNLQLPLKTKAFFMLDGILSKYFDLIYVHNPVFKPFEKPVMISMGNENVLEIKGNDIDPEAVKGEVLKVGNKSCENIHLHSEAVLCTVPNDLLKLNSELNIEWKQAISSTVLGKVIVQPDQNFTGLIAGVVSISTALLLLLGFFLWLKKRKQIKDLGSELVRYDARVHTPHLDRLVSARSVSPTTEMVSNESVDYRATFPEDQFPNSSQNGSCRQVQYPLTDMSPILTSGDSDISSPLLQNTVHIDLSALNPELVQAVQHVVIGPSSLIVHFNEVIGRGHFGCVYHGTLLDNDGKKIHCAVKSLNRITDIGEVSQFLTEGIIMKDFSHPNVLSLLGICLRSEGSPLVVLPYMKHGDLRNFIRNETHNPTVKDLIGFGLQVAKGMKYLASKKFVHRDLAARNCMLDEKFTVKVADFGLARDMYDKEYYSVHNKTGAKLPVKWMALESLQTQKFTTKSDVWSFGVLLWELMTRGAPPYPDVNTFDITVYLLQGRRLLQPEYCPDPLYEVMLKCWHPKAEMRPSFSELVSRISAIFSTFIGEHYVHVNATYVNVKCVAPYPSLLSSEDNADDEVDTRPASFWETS
protocol: Met phosphorylation assay in GTL16 cells
Type: cell-based
Set-up: endogenous in cells; host or cells: GTL16 cells
experimental_parameters: compound 1 hour, anti-Phospho-Met (Tyr1234/1235), read-out: Met Phosp.
Measured IC50 of individual entries
experimental_endpoint: IC50

O=C(Nc1nc2[nH]nc(-n3cncc3-c3ccccc3Cl)c2s1)C1CC1    1 to 10 µM
O=C(Nc1nc2[nH]nc(-n3cncc3-c3cccc(F)c3F)c2s1)C1CC1    > 10 µM
O=C(Nc1nc2[nH]nc(-n3cncc3-c3c(Cl)cccc3Cl)c2s1)C1CC1    1 to 10 µM
O=C(Nc1cc[nH]n1)Nc1nc2[nH]nc(-n3cncc3-c3ccccc3Cl)c2s1    > 10 µM
